Source of measurements: patent US20130303535A1

Consider the following molecules; for each one, report its inhibition at 12.5 µM.
target: TTX resistant Na channel of human SNS-expressing cell (SNS) (Homo sapiens); assay: cell-based; details: CHO-K1, compound concentration 12.5 μM; read-out: SNS inhibitory rate (%)
Sequence (Q9Y5Y9 whole entry, looked up): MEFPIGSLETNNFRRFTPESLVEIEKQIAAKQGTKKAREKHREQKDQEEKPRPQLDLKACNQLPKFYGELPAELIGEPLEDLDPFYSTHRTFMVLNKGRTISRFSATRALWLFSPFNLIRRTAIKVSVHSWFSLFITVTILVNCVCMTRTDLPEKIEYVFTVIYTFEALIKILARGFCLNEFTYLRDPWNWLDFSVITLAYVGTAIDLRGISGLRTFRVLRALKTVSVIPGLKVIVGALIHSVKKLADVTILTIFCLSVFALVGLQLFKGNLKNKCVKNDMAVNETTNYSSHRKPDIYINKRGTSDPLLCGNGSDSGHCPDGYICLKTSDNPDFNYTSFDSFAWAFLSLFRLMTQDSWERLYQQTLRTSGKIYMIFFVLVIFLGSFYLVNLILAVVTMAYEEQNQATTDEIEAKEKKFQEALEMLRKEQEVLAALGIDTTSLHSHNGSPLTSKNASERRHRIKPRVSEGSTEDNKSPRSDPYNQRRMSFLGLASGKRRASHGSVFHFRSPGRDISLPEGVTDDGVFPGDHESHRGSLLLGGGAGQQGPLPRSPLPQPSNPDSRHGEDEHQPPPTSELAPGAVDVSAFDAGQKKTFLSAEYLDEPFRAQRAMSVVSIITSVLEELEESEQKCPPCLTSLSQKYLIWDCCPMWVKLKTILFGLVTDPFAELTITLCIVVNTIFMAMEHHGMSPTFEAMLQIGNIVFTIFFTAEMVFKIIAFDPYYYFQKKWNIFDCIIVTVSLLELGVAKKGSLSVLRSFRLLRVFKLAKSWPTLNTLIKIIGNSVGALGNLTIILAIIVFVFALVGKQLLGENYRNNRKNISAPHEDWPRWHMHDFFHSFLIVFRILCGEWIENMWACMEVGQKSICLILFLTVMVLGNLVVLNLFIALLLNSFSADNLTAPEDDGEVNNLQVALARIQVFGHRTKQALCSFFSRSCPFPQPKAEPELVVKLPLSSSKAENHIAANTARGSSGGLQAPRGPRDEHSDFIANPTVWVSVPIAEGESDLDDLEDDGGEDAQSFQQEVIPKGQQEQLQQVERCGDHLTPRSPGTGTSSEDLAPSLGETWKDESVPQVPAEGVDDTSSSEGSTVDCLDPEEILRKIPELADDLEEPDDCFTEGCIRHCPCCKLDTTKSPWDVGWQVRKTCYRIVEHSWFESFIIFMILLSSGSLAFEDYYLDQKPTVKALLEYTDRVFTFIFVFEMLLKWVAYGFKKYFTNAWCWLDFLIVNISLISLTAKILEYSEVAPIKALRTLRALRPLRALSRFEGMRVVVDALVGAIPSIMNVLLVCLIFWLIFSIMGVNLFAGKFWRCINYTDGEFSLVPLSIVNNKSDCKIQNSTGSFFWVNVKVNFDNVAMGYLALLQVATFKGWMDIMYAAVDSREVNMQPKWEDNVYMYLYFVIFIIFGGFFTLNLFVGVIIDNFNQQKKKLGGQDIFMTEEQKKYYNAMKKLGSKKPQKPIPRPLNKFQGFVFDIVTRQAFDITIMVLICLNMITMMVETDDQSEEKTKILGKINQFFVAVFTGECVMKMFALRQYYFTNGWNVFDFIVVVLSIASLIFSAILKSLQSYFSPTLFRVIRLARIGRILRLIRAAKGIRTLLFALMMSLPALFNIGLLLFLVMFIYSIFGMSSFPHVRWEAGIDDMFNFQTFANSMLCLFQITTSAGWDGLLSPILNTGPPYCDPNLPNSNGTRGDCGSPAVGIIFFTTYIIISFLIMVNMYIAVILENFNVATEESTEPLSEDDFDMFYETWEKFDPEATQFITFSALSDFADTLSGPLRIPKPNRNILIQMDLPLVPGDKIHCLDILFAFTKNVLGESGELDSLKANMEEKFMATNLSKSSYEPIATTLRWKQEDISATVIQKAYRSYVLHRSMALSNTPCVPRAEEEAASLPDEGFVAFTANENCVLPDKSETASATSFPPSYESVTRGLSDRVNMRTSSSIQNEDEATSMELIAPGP
Answers are plain numbers, in %.

Previously resolved entries follow.
C[C@H](NCc1nc2ccc(Oc3ccc(F)c(F)c3)cc2n1C1CCOCC1)C(N)=O 85
CCOCCn1c(CN[C@@H](C)C(N)=O)nc2ccc(Oc3ccc(C(F)(F)F)cc3)cc21 95.5
CCn1c(CN[C@@H](C)C(N)=O)nc2ccc(-c3ccc(F)cc3)cc21 9.8
CCOCCn1c(CN[C@@H](C)C(N)=O)nc2ccc(-c3ccc(F)cc3F)cc21 23.5
CCOCCn1c(CNC(C)(C)C(N)=O)nc2ccc(-c3ccc(F)c(OC)c3)cc21 5.9

Could I get inhibition at 12.5 µM for every one of these entries?
1. CCOCCn1c(CN[C@@H](C)C(N)=O)nc2ccc(Oc3ccc(Cl)cc3)cc21
2. CCOCCn1c(CN[C@@H](C)C(N)=O)nc2cc(Cl)c(-c3ccc(C(F)(F)F)cc3)cc21
3. C[C@H](NCc1nc2ccc(Oc3ccc(F)cc3)cc2n1CCO)C(N)=O

1: 78.2; 2: 0; 3: 78.8

Could I get inhibition at 12.5 µM for every one of these entries?
1. CCn1c(CN[C@@H](C)C(N)=O)nc2ccc(Oc3ccc(OC(F)(F)F)cc3)cc21
2. CC(C)(NCc1nc2ccc(Oc3ccc(F)cc3F)cc2n1C[C@@H]1CCCO1)C(N)=O
3. CCOCCn1c(CN[C@@H](C)C(N)=O)nc2ccc(-c3ccc(OC(F)(F)F)cc3)cc21
4. CCOCCn1c(CN[C@@H](C)C(N)=O)nc2ccc(Oc3ccc(C(C)(C)C)cc3)cc21
5. CC(C)NC(=O)N1CCC(n2c(CN[C@@H](C)C(N)=O)nc3ccc(Oc4ccc(F)cc4)cc32)CC1
6. CCOCCn1c(CN[C@@H](C)C(N)=O)nc2cc(F)c(-c3ccccc3)cc21
7. CCOCCn1c(CN[C@@H](C)C(N)=O)nc2cc(Cl)c(-c3ccc(F)cc3)cc21
8. CCOCCn1c(CN[C@@H](C)C(N)=O)nc2c(Cl)cc(-c3ccc(F)cc3)cc21

1: 83.6; 2: 90.7; 3: 1.3; 4: 58.2; 5: 76.8; 6: 64.6; 7: 66.7; 8: 0

What inhibition at 12.5 µM value was documented for this molecule, C[C@H](NCc1nc2ccc(Oc3ccc(OC(F)(F)F)cc3)cc2n1CCO)C(N)=O ?
95.7
